Here the recorded IFI is given for each entry.
assay_info: GSK_TCMDC: Inhibition Frequency Index (IFI). The number of non-kinase HTS assays where a compound showed > 50 % inhibition, expressed as a percentage of the number of such assays in which the compound was tested
Assay type: functional
The full ranking holds about 13,000 compounds; the median of “IFI” is about 4, and the highest 2% start at about 17. For the sample, the highest values were picked, then their nearest neighbours and some compounds at random.
Entry rule: numbers only, all in %.

Lookup: I am curious: what IFI value has been reported for N=C(N)c1ccc2[nH]c(SCc3ccccc3)nc2c1 ?
Found: 0.94

Lookup: I am curious: what IFI value has been reported for O=C(CCc1c[nH]cn1)Nc1ccc(-c2ccc(-c3nc4ccccc4[nH]3)cc2)cc1 ?
Found: 3.51

Lookup: I am curious: what IFI value has been reported for OC(CNc1ccnc(Nc2ccc(Cl)cc2)n1)c1ccccc1C(F)(F)F (stereo not drawn) ?
Found: 14.4

* * *

assay_info: GSK_TCMDC: Inhibition Frequency Index (IFI). The number of non-kinase HTS assays where a compound showed > 50 % inhibition, expressed as a percentage of the number of such assays in which the compound was tested
Format: functional
In all, about 13,000 compounds were measured (“IFI”: median about 4, highest 2% from about 17 on). The sample holds the highest values, similar compounds and a random draw of the others, so the mix is not that of the screen.
measured_attribute: IFI (%)
Entry rule: numbers only, all in %.

The cases that follow already have their IFI on record.
Lookup: I am curious: what IFI value has been reported for CC(=O)Nc1cccc(Nc2nccc(Nc3ccc(Oc4ccccc4)cc3)n2)c1 ?
Found: 4.96

Lookup: I am curious: what IFI value has been reported for CCN(CC)CCCNc1ncc2c(-c3ccc(NC(=O)Nc4cc(C(F)(F)F)ccc4F)cc3)nn(C)c2n1 ?
Found: 10.8

Lookup: I am curious: what IFI value has been reported for CC(C)NCc1ccc(OCc2cccc(COc3ccc(CNC(C)C)cc3I)c2)c(I)c1 ?
Found: 17.6

Others:
Lookup: I am curious: what IFI value has been reported for COc1ccc(CNC(=O)Nc2cc3cc(-c4ccc(CN5CCCC5)cc4)ccc3n3c(C)nnc23)cc1 ?
Found: 13.5

Lookup: I am curious: what IFI value has been reported for Cc1cc(-c2ccc3c(c2)CCN(CCCOc2ccc4c(c2)CCN4C(=O)/C=C/c2ccccc2Cl)CC3)no1 ?
Found: 10.8

* * *

assay_info: GSK_TCMDC: Inhibition Frequency Index (IFI). The number of non-kinase HTS assays where a compound showed > 50 % inhibition, expressed as a percentage of the number of such assays in which the compound was tested
Assay type: functional
The full ranking holds about 13,000 compounds; the median of “IFI” is about 4, and the highest 2% start at about 17. This is one part of a sample in which the highest values are shown more often than they occur.
Mark each entry Yes if its IFI sits below 7%, and No for all others.

Answered cases to consult:
Lookup: Criterion: IFI strictly below 7%. Is it met by Oc1ccc(CCCNc2nc(NCc3ccccc3-c3ccccc3)nc(N3CCNCC3)n2)cc1 ?
Found: No

Lookup: Criterion: IFI strictly below 7%. Is it met by COc1ccccc1-c1cccc(-c2cccc(NC(=O)c3ccc([N+](=O)[O-])o3)c2)n1 ?
Found: No

Lookup: Criterion: IFI strictly below 7%. Is it met by Oc1ccc(CCNc2nc(NCc3ccccc3-c3ccccc3)nc(N3CCCNCC3)n2)cc1 ?
Found: No

Lookup: Criterion: IFI strictly below 7%. Is it met by CC(=O)N1N=C(c2ccc(Cl)cc2)Sc2c1nc(-c1ccccc1)n2C(C)=O ?
Found: Yes

Lookup: Criterion: IFI strictly below 7%. Is it met by COc1cccc(-c2cccc(-c3ccc(NC(=O)c4ccc([N+](=O)[O-])o4)cc3)n2)c1 ?
Found: No

Others:
Lookup: Criterion: IFI strictly below 7%. Is it met by COc1ccc(Nc2c3ccc(Cl)cc3nc3ccc(OC)cc23)cc1 ?
Found: Yes

Lookup: Criterion: IFI strictly below 7%. Is it met by Cc1cc(=NN=Cc2ccccc2F)c2cc(F)ccc2[nH]1 ?
Found: Yes

Lookup: Criterion: IFI strictly below 7%. Is it met by CC1(C)NC(N)=NC(=N)N1OCCOc1cccc(C(F)(F)F)c1 ?
Found: Yes

Lookup: Criterion: IFI strictly below 7%. Is it met by CNc1nc(Nc2ccccc2C)nc2ccccc12 ?
Found: Yes

* * *

assay_info: GSK_TCMDC: Inhibition Frequency Index (IFI). The number of non-kinase HTS assays where a compound showed > 50 % inhibition, expressed as a percentage of the number of such assays in which the compound was tested
Format: functional
Over roughly 13,000 compounds, “IFI” has its median near 4; the highest 2% begin near 17. The entries come from a sample that favours the highest values as a whole.
Here the recorded IFI is given for each entry.
Form entry: enter the amount, then its unit.

The cases that follow already have their IFI on record.
Lookup: I am curious: what IFI value has been reported for CC(=O)Nc1nc(C(=O)Nc2ccc(-c3cccc(-c4nc5cc(C(F)(F)F)ccc5[nH]4)c3)cc2)cs1 ?
Found: 6.03%

Lookup: I am curious: what IFI value has been reported for O=S(=O)(NCCN1CCCC1)c1cccc(-c2ccc(CNCc3ccccc3)cc2)c1 ?
Found: 5.88%

Lookup: I am curious: what IFI value has been reported for Clc1cc(Br)ccc1-c1ccc(CNCC2CCNCC2)o1 ?
Found: 26.3%

Lookup: I am curious: what IFI value has been reported for CCCNCc1ccc(-c2ccc(CN(CCOC)C(=O)c3cnc(C)cn3)cc2)nc1 ?
Found: 0%

Lookup: I am curious: what IFI value has been reported for c1ccc2[nH]c(-c3ccc(-c4ccc(CNCC5CCCO5)cc4)s3)nc2c1 (stereo not given) ?
Found: 6.86%

Lookup: I am curious: what IFI value has been reported for Cc1cccc2nc(-c3cccc(-c4ccc(NC(=O)Nc5ccc(Cl)c(Cl)c5)cc4)c3)[nH]c12 ?
Found: 7.07%

Lookup: I am curious: what IFI value has been reported for CN(C)CCCNCc1ccc(-c2ccc(F)c(Cl)c2)o1 ?
Found: 6.94%

Lookup: I am curious: what IFI value has been reported for CCC(C)(C)c1ccc(S(=O)(=O)Nc2ccc(Cl)c(OCCN3CCCCC3)c2)cc1 ?
Found: 43.1%

Lookup: I am curious: what IFI value has been reported for CNCCCNCc1ccc(-c2ccc(F)c(Cl)c2)o1 ?
Found: 2.78%

Now for another entry.
Lookup: I am curious: what IFI value has been reported for Nc1c2ccccc2nc2ccc(Cl)cc12 ?
Found: 9.03%

* * *

assay_info: GSK_TCMDC: Inhibition Frequency Index (IFI). The number of non-kinase HTS assays where a compound showed > 50 % inhibition, expressed as a percentage of the number of such assays in which the compound was tested
Assay type: functional
Over roughly 13,000 compounds, “IFI” has its median near 4; the highest 2% begin near 17. Shown is part of a subset that was picked to be rich in the highest values.
measured_attribute: IFI (%)
Entry rule: numbers only, all in %.

The cases that follow already have their IFI on record.
Lookup: I am curious: what IFI value has been reported for O=C(NCC1Cc2cc(Oc3ccccc3)ccc2O1)c1ccc([N+](=O)[O-])o1 (stereo not given) ?
Found: 17.9

Lookup: I am curious: what IFI value has been reported for O=C(c1cc(-c2cccs2)n[nH]1)N1CCN(S(=O)(=O)c2ccc(Br)cc2)CC1 ?
Found: 0

Lookup: I am curious: what IFI value has been reported for Cc1cc([N+](=O)[O-])ccc1NC(=O)Nc1cccc(C(F)(F)F)c1 ?
Found: 7.89

Lookup: I am curious: what IFI value has been reported for c1ccc2c(NCCCCCCCCNc3ccnc4ccccc34)ccnc2c1 ?
Found: 8.27

Lookup: I am curious: what IFI value has been reported for Cc1cccc2nc(-c3cccc(-c4ccc(NC(=O)C(C)CN(C)C)cc4)c3)[nH]c12 (stereo not given) ?
Found: 5.45

Lookup: I am curious: what IFI value has been reported for Cc1cc(=NN=Cc2ccc(F)cc2)c2cc(F)ccc2[nH]1 ?
Found: 2.86

Lookup: I am curious: what IFI value has been reported for Cc1cc(=O)[nH]c(-n2nc(C)cc2NC(=O)C2(c3ccc(Cl)cc3)CCCC2)n1 ?
Found: 19.2

Lookup: I am curious: what IFI value has been reported for Cc1sc(NC(=O)c2ccc([N+](=O)[O-])cc2Cl)c(C(N)=O)c1C ?
Found: 0.75

Others:
Lookup: I am curious: what IFI value has been reported for O=C(Cn1c(CCc2cccc(F)c2F)nc(=O)c2ccccc21)N(Cc1ccc(-c2ccc(C(F)(F)F)cc2)cc1)C1CCN(C2=NCCS2)CC1 ?
Found: 12.5

Lookup: I am curious: what IFI value has been reported for Nc1cc(/C=C/c2ccc([N+](=O)[O-])o2)nc2ccccc12 ?
Found: 16.7

Lookup: I am curious: what IFI value has been reported for Cc1cc(=O)[nH]c(-n2nc(C)cc2NC(=O)C(c2ccccc2)c2ccccc2)n1 ?
Found: 10.4

Lookup: I am curious: what IFI value has been reported for O=C(NCCCCN1CCC(c2ccc(-c3ccco3)cc2)CC1)c1ccc(NC(=O)c2ccc(Cl)cc2)cc1 ?
Found: 5.98

Lookup: I am curious: what IFI value has been reported for Cc1cc(=O)[nH]c(-n2nc(C)cc2NC(=O)CC(c2ccccc2)c2ccccc2)n1 ?
Found: 10.4

Lookup: I am curious: what IFI value has been reported for O=C(NC1CCN(CC2(c3ccccc3F)CCCC2)CC1)c1cc[nH]n1 ?
Found: 0

Lookup: I am curious: what IFI value has been reported for Nc1cc(/C=C/c2ccc([N+](=O)[O-])s2)nc2ccccc12 ?
Found: 19.2

The reported numbers originate from ChEMBL document CHEMBL1157539.
